Record form. Attribute: IC50. Fill in for each entry.
# testTarget: GPER (Homo sapiens, UniProt Q99527)
# Construct: HL-60 cells (a human promyelocytic leukemia cell line) which endogenously expresses GPER; host or cells: HL-60
# Sequence (Q99527 whole entry): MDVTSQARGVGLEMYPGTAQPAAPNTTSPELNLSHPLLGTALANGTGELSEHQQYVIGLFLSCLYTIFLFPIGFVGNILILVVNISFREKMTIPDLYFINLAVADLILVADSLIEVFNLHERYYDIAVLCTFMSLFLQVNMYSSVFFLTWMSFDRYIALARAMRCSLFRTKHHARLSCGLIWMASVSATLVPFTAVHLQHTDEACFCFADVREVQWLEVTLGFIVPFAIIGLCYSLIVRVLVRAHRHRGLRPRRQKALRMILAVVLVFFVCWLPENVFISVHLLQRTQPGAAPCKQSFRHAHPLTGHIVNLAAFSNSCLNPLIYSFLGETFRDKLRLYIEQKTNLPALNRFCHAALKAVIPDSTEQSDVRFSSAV
# assaySummary: Calcium mobilization antagonism assay in indo1-AM-loaded HL-60 cells (against EC80 of G-1)
# Assay type: cell-based
# runConditions: Table 3; HL-60 cells endogenously expressing GPER; mean ± SD of three IC50 values from triplicates; read-out: IC50 (nM) of the inhibition of calcium mobilization
Give bare numbers, in nM.

molecularString | IC50 [nM]
CC(C)(C)c1ccc(NCc2ccc(Cl)cc2)c(C2CCCCC2)c1 | 141
CC(C)(C)c1ccc(NCc2ccc(-c3ccccc3)cc2)c(C2CCCCC2)c1 | 132
CC(C)c1ccc(NCc2ccc3ccccc3c2)c(C2CCCCC2)c1 | 260
COc1ccc(CNc2ccc(C(C)(C)C)cc2C2CCCCC2)cc1 | 874
CC(C)(C)c1ccc(NCc2ccccc2)c(C2CCCCC2)c1 | 331

I have 2 compounds here; please give me IC50 for each one.
1. Cc1ccc(CNc2ccc(C(C)(C)C)cc2C2CCCCC2)cc1
2. CC(C)(C)c1ccc(NCc2ccc(Cl)c(Cl)c2)c(C2CCCCC2)c1

Out:
60.8
657

Hello, the source for this data is patent US11634378B2, in case you need it.
